# stated.conditions: basic group
readout.kind: pKa
Just the number.

Solved entries:
{"columns": ["compound", "pKa"],
 "data": [
  ["CCC(O)CN(C)CCO (stereo not drawn)", 8.7],
  ["CNCCNCCN", 10.2],
  ["C[Si](C)(C)CCCN", 10.8]
]}

Please fill in: pKa reported for CN(C)c1cc[n+](C)c([O-])n1 = 4.2

====

# stated.conditions: acidic group
Here, each record is paired with measured pKa data.

Please fill in: pKa reported for COc1ccc2c(c1)CCC(=O)C2 = 13.3

Please fill in: pKa reported for Cn1c[nH+]cc1C[C@H]([NH3+])C(=O)O = 1.84

====

Here, each record is paired with measured pKa data.
# stated.conditions: acidic group
Just the number.

Solved entries:
{"columns": ["molecule", "pKa"],
 "data": [
  ["CO[n+]1ccccc1N", 12.4],
  ["C[Si](C)(CC(=O)O)c1ccccc1", 5.27],
  ["COC(=O)[C@H](NC(=O)Cc1ccccc1)[C@@H]1SC(C)(C)[C@H]2C(=O)NC(=S)N12", 8],
  ["O/N=C\\C=C\\c1ccccc1", 10.9]
]}

Please fill in: pKa reported for COc1cc(S(C)=O)ccc1-c1nc2cnncc2[nH]1 (configuration not stated) = 8.49

Please fill in: pKa reported for CC(C)(C(=O)O)c1nnnn1C1CCCCC1 = 3.7

Please fill in: pKa reported for CN1c2ccccc2Nc2ccc(O)cc21 = 10.1

Please fill in: pKa reported for Nc1nc2cc3ccccc3cc2[nH]1 = 12.8

Please fill in: pKa reported for Oc1ccc2ncsc2c1 = 9.21

Please fill in: pKa reported for CCSc1nccc(O)[n+]1C = 0.9

Please fill in: pKa reported for O=C([O-])C[NH+](CC(=O)[O-])Cc1cc(Cl)cc(C[NH+](CC(=O)[O-])CC(=O)[O-])c1O = 6.27

Please fill in: pKa reported for Cc1cc(C)c(/N=N/c2c(C)cc(O)cc2C)c(C)c1 = 9.1

Please fill in: pKa reported for Oc1cc(-c2ccccc2)nn1-c1ccccc1 = 12.2

Please fill in: pKa reported for CC(O)C(C(=O)O)c1ccc(-c2ccccc2)cc1 (configuration not stated) = 4.3

Please fill in: pKa reported for COC1=CC2CCC1(C(=O)O)CC2 = 4.45

====

# stated.conditions: basic group
Here, each record is paired with measured pKa data.
Just the number.

Solved entries:
{"columns": ["compound", "measured.result"],
 "data": [
  ["CCCCSCCN(CC)CC", 8.43],
  ["C[NH+](C)CCN1C=Nc2cccc3cccc1c23", 4.64],
  ["Nc1ccc(Cl)cc1Cl", 2.07],
  ["NC1CCN(Cc2ccccc2)CC1", 9.79],
  ["Oc1cccc2cccnc12", 5.02]
]}

Kindly review the next compound as well.
Please fill in: pKa reported for OCCCCCc1cccnc1 = 5.72

====

# stated.conditions: basic group
// map pKa to label using lower level: < 5; middle level: ≥ 5 and < 8; upper level: ≥ 8

{"columns": ["compound", "assigned.label"],
 "data": [
  ["C[NH+]1CCCC1c1cccnc1 (stereo unspecified)", "lower level"],
  ["CSc1cnc2ccccc2c1", "lower level"],
  ["N=C(Sc1ccccc1)c1ccccc1", "lower level"],
  ["CC(=O)Nc1ccc2cc3ccccc3nc2c1", "middle level"],
  ["C[NH+]1CCC[C@H]1c1cccnc1", "lower level"],
  ["C/C=C1/CN2CC[C@]34C(=C(C(=O)OC)[C@H]1C[C@H]23)Nc1ccccc14", "middle level"]
]}

Proceed to the following item.
-- ask Each compound maps to one class by pKa. Which class for c1cc(C2CCCN2)nc(C2CCC[NH2+]2)c1 (stereo unspecified) ?
-- reply upper level

====

# stated.conditions: acidic group
Here, each record is paired with measured pKa data.
Just the number.

Solved entries:
{"columns": ["molecule", "readout.kind", "measured.result"],
 "data": [
  ["Oc1c(Cl)cc(Cl)cc1C[NH+]1CCCCC1", "pKa", 5.97],
  ["Cc1ccc(S(=O)(=O)NC(=O)OC(C)(C)C)cc1", "pKa", 5.05],
  ["N#CC(C#N)=NNc1cccc(Cl)c1Cl", "pKa", 5.15]
]}

Please fill in: pKa reported for O=C(O)Cc1ccc(Cl)s1 = 3.89

Please fill in: pKa reported for COCc1ccccc1C(=O)O = 3.85

Please fill in: pKa reported for O=C(O)C1(O)CCCCC1 = 4.18

Please fill in: pKa reported for O=C1C=Cc2ccccc2/C1=N\O = 7.77

Please fill in: pKa reported for O=C([O-])CCCC(=O)NOCc1ccccc1 = 10.2

Please fill in: pKa reported for [O-]c1ccc2ccccc2[n+]1O = 6.88

Please fill in: pKa reported for NS(=O)(=O)c1ccc(/N=C/c2ccccc2O)cc1 = 6.63

Please fill in: pKa reported for CCOc1ccccc1C(=O)O = 4.18

Please fill in: pKa reported for CCCCC#CC(=O)O = 2.61

Please fill in: pKa reported for CCC(C)NC(C#N)=C(C#N)C#N (stereo unspecified) = 6.35

Please fill in: pKa reported for O[n+]1ccccc1 = 0.77

Please fill in: pKa reported for CC(C)(C)Cc1ccc(O)cc1 = 10.7

Please fill in: pKa reported for O=C1CCON1 = 6.7

Please fill in: pKa reported for CC(=O)c1cc(C(C)=O)[nH]n1 = 8.98

Please fill in: pKa reported for O/C(=C/[n+]1ccccc1)c1ccccc1 = 4.8

====

# stated.conditions: acidic group
Here, each record is paired with measured pKa data.
Just the number.

Solved entries:
{"columns": ["compound", "readout.kind", "measured.result"],
 "data": [
  ["Brc1ccc(-c2nnn[nH]2)cc1", "pKa", 3.73],
  ["Cc1nc2nc([O-])[nH]c(=O)c2[nH]1", "pKa", 9.7],
  ["CC1(C)C(=O)CC(=O)CC1=O", "pKa", 4.2]
]}

Please fill in: pKa reported for CC(C)N(CCC(C(N)=O)(c1ccccc1)c1ccccn1)C(C)C (configuration not stated) = 10.2

Please fill in: pKa reported for O=C(O)c1ccc(F)cc1 = 4.16

Please fill in: pKa reported for OCc1ccc(O)c(CO)c1 = 9.77

Please fill in: pKa reported for O=C(O)c1cnc(Cl)s1 = 3

Please fill in: pKa reported for Cc1ccc(C(O)C(C(=O)O)c2ccc(-c3ccccc3)cc2)cc1 (configuration not stated) = 4.24

Please fill in: pKa reported for CN(O)C(=O)C(C)(C)C = 9.94

Please fill in: pKa reported for C(COCCc1nnn[nH]1)OCCc1nnn[n-]1 = 5.37

Please fill in: pKa reported for O=C1CCc2cc(Cl)ccc2C1 = 12.5

Please fill in: pKa reported for CN(C)C(=O)CS = 8.1

Please fill in: pKa reported for O=C(O)[C@H]1C[C@@H]2CC[C@H]1C2 = 5.02

Please fill in: pKa reported for O=C(O)C1CC1 = 4.83

Please fill in: pKa reported for CC(=O)NC(CS)C(=O)O (configuration not stated) = 3.08

Please fill in: pKa reported for COC(=O)[n+]1ccc(C)cc1 = 6.15

Please fill in: pKa reported for Cc1ccc([N+](=O)[O-])c(C(=O)O)c1 = 2.55

Please fill in: pKa reported for c1ccc2[nH]cnc2c1 = 12.6

====

# stated.conditions: basic group
Hi, to clarify the labels: class 1 covers pKa from 7 upward, class 0 covers anything below 7.

{"columns": ["compound", "assigned.label"],
 "data": [
  ["O=C(Cc1cccnc1)c1ccccc1", "class 0"],
  ["COc1ccc2[nH]cc(CC(C)N)c2c1 (stereo not given)", "class 1"],
  ["Cc1ncnc2ccccc12", "class 0"]
]}

-- ask Hi, just wondering whether Nc1ccc2nc(/C=C/c3ccccc3)ccc2c1 shows pKa of 7 or higher.
-- reply class 0

-- ask Hi, just wondering whether Nc1cncnc1N shows pKa of 7 or higher.
-- reply class 0

====

# stated.conditions: acidic group
Here, each record is paired with measured pKa data.
Just the number.

{"columns": ["entry.smiles", "pKa"],
 "data": [
  ["Oc1ccc(/N=N/c2ccccc2)cc1", 8.44],
  ["CC(C)(C)Cc1ccccc1O", 10.7],
  ["CCCc1cc(Cl)cc(Cl)c1O", 8.1],
  ["O=C(O)C12CCC(C1)C2", 3.96],
  ["CC/C=C/Cc1nc(C(=O)[O-])cn1[C@H](C(=O)[O-])C(C)(C)S", 10.2]
]}

Please fill in: pKa reported for CCc1c(O)nn(-c2ccccc2C(=O)[O-])c1C = 12.2

Please fill in: pKa reported for Nc1c(O)cccc1O = 9.3

Please fill in: pKa reported for CC1(C)NC(C)(C)[N+](O)=C1c1ccccc1 = 2.06

Please fill in: pKa reported for O=C1CC(=O)CC2(CCCCC2)C1 = 5.2

Please fill in: pKa reported for COC(=O)/C=C(/C)O = 9.48

Please fill in: pKa reported for Cc1nc(N)cc(O)[nH+]1 = 1.7

Please fill in: pKa reported for CC(C)COc1ccc(C(=O)O)cc1 = 4.48

Please fill in: pKa reported for CP(C)(=O)O = 3.08

Please fill in: pKa reported for O=S(=O)([O-])c1cc(O)cc2cn[nH]c12 = 9.65

Please fill in: pKa reported for Cc1ccc(C(=S)Nc2cccc(F)c2)cc1 = 10.6

Provenance of the data: the pKa sets of Baltruschat and Czodrowski (2020)
